Measured values drawn from patent US10526345B2 for this set.

# TESTED ON: hGPR119 (Homo sapiens, UniProt Q8TDV5)
# Construct: expressed in transfected cells; host or cells: CHO
# Sequence (Q8TDV5 1-335): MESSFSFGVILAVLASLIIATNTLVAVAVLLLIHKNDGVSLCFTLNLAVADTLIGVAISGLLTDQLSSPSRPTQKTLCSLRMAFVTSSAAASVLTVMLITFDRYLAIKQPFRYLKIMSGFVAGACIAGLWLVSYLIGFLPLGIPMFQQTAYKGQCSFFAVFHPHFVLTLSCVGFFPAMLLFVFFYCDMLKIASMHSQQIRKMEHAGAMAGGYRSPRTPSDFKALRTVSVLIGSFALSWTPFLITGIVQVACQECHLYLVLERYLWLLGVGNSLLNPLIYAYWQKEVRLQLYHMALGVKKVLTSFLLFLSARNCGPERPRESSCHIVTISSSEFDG
# EXPERIMENT NOTES: In vitro cyclic AMP assay (Cisbio dynamic 2 HTRF kit) in CHO-hGPR119 cells
# Assay type: cell-based
# CONDITION PARAMETERS: 1 h, cAMP, compound at 1 μM, 60 min, read-out: Induction (% induction at 1 μM)
ASSAY METRIC: activation at 1 µM
Returns: string containing the number followed by the unit.

CC(CC1CCN(c2nc(C(C)C)no2)CC1)Oc1nc2ccc(-c3ccc(S(C)(=O)=O)cc3)nc2s1 (stereo not shown); 4%

Task: May I ask what activation at 1 µM has been recorded for "CC(C)c1noc(N2CCC([C@@H](C)Oc3nc4ccc(-c5ccc(S(C)(=O)=O)cc5)nc4s3)CC2)n1" ?
Output: 13%

Task: May I ask what activation at 1 µM has been recorded for COCC(Oc1nc2ccc(-c3ccc(S(C)(=O)=O)cc3)nc2s1)C1CCN(c2nc(C(C)C)no2)CC1 (stereo not shown) ?
Output: 47%

Task: May I ask what activation at 1 µM has been recorded for CCCc1cnc(N2CCC(C(C)Oc3nc4ccc(-c5ccncc5)nc4s3)CC2)nc1 (stereo not shown) ?
Output: 67%
